run_description: Pharmacokinetics of rivaroxaban in rats, alone and after multiple doses of almonertinib
Format: in vivo, Sprague-Dawley (SD) rats
test_context: male, Sprague-Dawley, rat, plasma, po, 2 mg/kg, rats, oral rivaroxaban 2 mg/kg after almonertinib 15 mg/kg for nine days (group 5), mean ± SD, n = 6; read-out: MRT0-t
metric: MRT last (h)
Please reply with the bare figure in h and do not write the unit itself.

Enquiry: State, in one line, measured MRT last of O=C(NC[C@H]1CN(c2ccc(N3CCOCC3=O)cc2)C(=O)O1)c1ccc(Cl)s1 [rivaroxaban, Rivaroxaban]
Return: 3.94

###

run_description: Pharmacokinetics of almonertinib in rats, alone and after multiple doses of rivaroxaban or apixaban
Assay type: in vivo, Sprague-Dawley (SD) rats
test_context: male, Sprague-Dawley, rat, plasma, po, 15 mg/kg, rats, oral almonertinib 15 mg/kg alone (group 4, control solvent of apixaban), mean ± SD, n = 6
metric: Tmax (h)
# number only, unit h dropped from output

Enquiry: Using the record for C=CC(=O)Nc1cc(Nc2nccc(-c3cn(C4CC4)c4ccccc34)n2)c(OC)cc1N(C)CCN(C)C , state its measured Tmax.
Return: 1.83
